Reference source: BindingDB's records for doi:10.1021/jm010469k

# assay method text: antirhinoviral activity against HRV Protease 3CP (serotype 11)
pEC50: −log10 of the molar value.

{"smiles input": "Cc1cc(C(=O)Nc2cccn([C@@H](Cc3ccc(F)c(F)c3)C(=O)N[C@H](/C=C/C(=O)OC(C)C)C[C@@H]3CCNC3=O)c2=O)no1", "pEC50": 8.52}

----------
# assay method text: antirhinoviral activity against Human Rhinovirus Protease 3C (serotype 14)

{"smiles input": "CCOC(=O)/C=C/[C@H](CCC(N)=O)NC(=O)[C@H](Cc1ccccc1)n1cccc(NC(=O)OCc2ccccc2)c1=O", "EC50 [nM]": 33}

----------
# assay method text: antirhinoviral activity against HRV Protease 3CP (serotype 10)
pEC50: −log10 of the molar value.
Classify by measured pEC50: condition met if it is equal to or exceeds 8, condition not met if it is smaller.

{"smiles input": "CCOC(=O)/C=C/[C@H](CCC(N)=O)NC(=O)[C@H](Cc1ccc(F)c(F)c1)n1cccc(NC(=O)OCc2ccccc2)c1=O", "answer label": "condition not met"}
{"smiles input": "CCOC(=O)/C=C/[C@H](C[C@@H]1CCNC1=O)NC(=O)[C@H](Cc1ccc(F)c(F)c1)n1cccc(NC(=O)c2cc(C)on2)c1=O", "answer label": "condition met"}
{"smiles input": "CCOC(=O)/C=C/[C@H](C[C@@H]1CCNC1=O)NC(=O)[C@H](Cc1ccc(F)cc1)n1cccc(NC(=O)c2cc(C)on2)c1=O", "answer label": "condition met"}
{"smiles input": "CCOC(=O)/C=C/[C@H](CCC(N)=O)NC(=O)[C@H](Cc1ccccc1)n1cccc(NC(=O)C2SCCS2)c1=O", "answer label": "condition not met"}
{"smiles input": "CCOC(=O)/C=C/[C@H](CCC(N)=O)NC(=O)[C@H](Cc1ccc(F)cc1)n1cccc(NC(=O)OCc2ccccc2)c1=O", "answer label": "condition not met"}

----------
# assay method text: antirhinoviral activity against HRV Protease 3CP (serotype 25)
pEC50: −log10 of the molar value.

{"smiles input": "Cc1cc(C(=O)Nc2cccn([C@@H](Cc3ccc(F)c(F)c3)C(=O)N[C@H](/C=C/C(=O)OC(C)C)C[C@@H]3CCNC3=O)c2=O)no1", "pEC50": 7.00}

----------
# assay method text: antirhinoviral activity against HRV Protease 3CP (serotype 3)
pEC50: −log10 of the molar value.
measured quantity: pEC50

{"smiles input": "Cc1cc(C(=O)Nc2cccn([C@@H](Cc3ccc(F)c(F)c3)C(=O)N[C@H](/C=C/C(=O)OC(C)C)C[C@@H]3CCNC3=O)c2=O)no1", "measured quantity": "pEC50", "reading": 7.48}

----------
# assay method text: antirhinoviral activity against HRV Protease 3CP (serotype Hanks)
pEC50: −log10 of the molar value.
measured quantity: pEC50

{"smiles input": "Cc1cc(C(=O)Nc2cccn([C@@H](Cc3ccc(F)c(F)c3)C(=O)N[C@H](/C=C/C(=O)OC(C)C)C[C@@H]3CCNC3=O)c2=O)no1", "reading": 8.52}

----------
# assay method text: antirhinoviral activity against HRV Protease 3CP (serotype 10)
pEC50: −log10 of the molar value.

{"smiles input": "Cc1cc(C(=O)Nc2cccn([C@@H](Cc3ccc(F)c(F)c3)C(=O)N[C@H](/C=C/C(=O)OC(C)C)C[C@@H]3CCNC3=O)c2=O)no1", "pEC50": 7.07}

----------
# assay method text: antirhinoviral activity against HRV Protease 3CP (serotype 1A)

{"smiles input": "Cc1cc(C(=O)Nc2cccn([C@@H](Cc3ccc(F)c(F)c3)C(=O)N[C@H](/C=C/C(=O)OC(C)C)C[C@@H]3CCNC3=O)c2=O)no1", "measurement units": "nM", "EC50": 132}

----------
# assay method text: antirhinoviral activity against HRV Protease 3CP (serotype 16)
measured quantity: EC50

{"smiles input": "Cc1cc(C(=O)Nc2cccn([C@@H](Cc3ccc(F)c(F)c3)C(=O)N[C@H](/C=C/C(=O)OC(C)C)C[C@@H]3CCNC3=O)c2=O)no1", "reading": "36 nM"}

----------
# assay method text: antirhinoviral activity against HRV Protease 3CP (serotype 13)
pEC50: −log10 of the molar value.
measured quantity: pEC50

{"smiles input": "Cc1cc(C(=O)Nc2cccn([C@@H](Cc3ccc(F)c(F)c3)C(=O)N[C@H](/C=C/C(=O)OC(C)C)C[C@@H]3CCNC3=O)c2=O)no1", "measured quantity": "pEC50", "reading": 7.36}

----------
# assay method text: antirhinoviral activity against HRV Protease 3CP (serotype 19)
pEC50: −log10 of the molar value.

{"smiles input": "Cc1cc(C(=O)Nc2cccn([C@@H](Cc3ccc(F)c(F)c3)C(=O)N[C@H](/C=C/C(=O)OC(C)C)C[C@@H]3CCNC3=O)c2=O)no1", "pEC50": 8.05}

----------
# assay method text: antirhinoviral activity against HRV Protease 3CP (serotype 23)

{"smiles input": "Cc1cc(C(=O)Nc2cccn([C@@H](Cc3ccc(F)c(F)c3)C(=O)N[C@H](/C=C/C(=O)OC(C)C)C[C@@H]3CCNC3=O)c2=O)no1", "EC50, nM": 10}

----------
# assay method text: antirhinoviral activity against Human Rhinovirus Protease 3C (serotype 1A)
pEC50: −log10 of the molar value.
measured quantity: pEC50

{"smiles input": "CCOC(=O)/C=C/[C@H](CCC(N)=O)NC(=O)[C@H](Cc1ccccc1)n1cccc(NC(=O)OCc2ccccc2)c1=O", "measured quantity": "pEC50", "reading": 5.90}

----------
# assay method text: antirhinoviral activity against Human Rhinovirus Protease 3C (serotype 10)

{"smiles input": "CCOC(=O)/C=C/[C@H](CCC(N)=O)NC(=O)[C@H](Cc1ccccc1)n1cccc(NC(=O)OCc2ccccc2)c1=O", "EC50 / nM": 372}

----------
# assay method text: antirhinoviral activity against HRV Protease 3CP (serotype 1A)

{"smiles input": "CCOC(=O)/C=C/[C@H](CCC(N)=O)NC(=O)[C@H](Cc1ccc(F)cc1)n1cccc(NC(=O)OCc2ccccc2)c1=O", "EC50, nM": 607}
{"smiles input": "CCOC(=O)/C=C/[C@H](CCC(N)=O)NC(=O)[C@H](Cc1ccc(F)c(F)c1)n1cccc(NC(=O)OCc2ccccc2)c1=O", "EC50, nM": 513}
{"smiles input": "CCOC(=O)/C=C/[C@H](C[C@@H]1CCNC1=O)NC(=O)[C@H](Cc1ccc(F)c(F)c1)n1cccc(NC(=O)c2cc(C)on2)c1=O", "EC50, nM": 6}
{"smiles input": "CCOC(=O)/C=C/[C@H](C[C@@H]1CCNC1=O)NC(=O)[C@H](Cc1ccc(F)cc1)n1cccc(NC(=O)c2cc(C)on2)c1=O", "EC50, nM": 15}
{"smiles input": "CCOC(=O)/C=C/[C@H](CCC(N)=O)NC(=O)[C@H](Cc1ccccc1)n1cccc(NC(=O)C2SCCS2)c1=O", "EC50, nM": 1180}
